This collection of values is drawn from ChEMBL document CHEMBL2150971.

Tested on: Cellular tumor antigen p53 (Homo sapiens), P04637 [G245C]
method-notes: Induction of p53 G245C mutant depletion in human NCI-H596 cells at 20 uM by immunoblot analysis
Type: cell-based
Active and inactive are the calls of the source. The calls are words filed in the database; no cut-off is given here.
endpoint-label: Activity

{"molecule": "S=C=NCCc1ccccc1", "observed-value": "Active"}
{"molecule": "C=CCN=C=S", "observed-value": "inactive"}
{"molecule": "S=C=NC(c1ccccc1)(c1ccccc1)c1ccccc1", "observed-value": "inactive"}
{"molecule": "C[C@@H](N=C=S)c1ccccc1", "observed-value": "inactive"}
{"molecule": "S=C=NCc1ccc(Oc2ccccc2)cc1", "observed-value": "Active"}
{"molecule": "S=C=NCC1CCCCC1", "observed-value": "inactive"}
{"molecule": "S=C=Nc1ccccc1", "observed-value": "inactive"}
{"molecule": "S=C=NCc1ccc(Cl)cc1", "observed-value": "Active"}
{"molecule": "S=C=NCCCCCCc1ccccc1", "observed-value": "Active"}
{"molecule": "C[S+]([O-])CCCCN=C=S (configuration not stated)", "observed-value": "inactive"}
{"molecule": "S=C=NCCCc1ccccc1", "observed-value": "Active"}
{"molecule": "S=C=NCc1ccccc1", "observed-value": "Active"}
{"molecule": "COc1ccc(CN=C=S)cc1", "observed-value": "Active"}
{"molecule": "CNCCc1ccccc1", "observed-value": "inactive"}
{"molecule": "S=C=NCCCCc1ccccc1", "observed-value": "Active"}
{"molecule": "S=C=NCC(c1ccccc1)c1ccccc1", "observed-value": "Active"}
{"molecule": "S=C=NCCCCCc1ccccc1", "observed-value": "Active"}
